Below: a set of entries, each annotated with reported efflux ratio at 2 h.
Biological target: P-gp (Homo sapiens, UniProt P08183)
Sequence (P08183 whole entry): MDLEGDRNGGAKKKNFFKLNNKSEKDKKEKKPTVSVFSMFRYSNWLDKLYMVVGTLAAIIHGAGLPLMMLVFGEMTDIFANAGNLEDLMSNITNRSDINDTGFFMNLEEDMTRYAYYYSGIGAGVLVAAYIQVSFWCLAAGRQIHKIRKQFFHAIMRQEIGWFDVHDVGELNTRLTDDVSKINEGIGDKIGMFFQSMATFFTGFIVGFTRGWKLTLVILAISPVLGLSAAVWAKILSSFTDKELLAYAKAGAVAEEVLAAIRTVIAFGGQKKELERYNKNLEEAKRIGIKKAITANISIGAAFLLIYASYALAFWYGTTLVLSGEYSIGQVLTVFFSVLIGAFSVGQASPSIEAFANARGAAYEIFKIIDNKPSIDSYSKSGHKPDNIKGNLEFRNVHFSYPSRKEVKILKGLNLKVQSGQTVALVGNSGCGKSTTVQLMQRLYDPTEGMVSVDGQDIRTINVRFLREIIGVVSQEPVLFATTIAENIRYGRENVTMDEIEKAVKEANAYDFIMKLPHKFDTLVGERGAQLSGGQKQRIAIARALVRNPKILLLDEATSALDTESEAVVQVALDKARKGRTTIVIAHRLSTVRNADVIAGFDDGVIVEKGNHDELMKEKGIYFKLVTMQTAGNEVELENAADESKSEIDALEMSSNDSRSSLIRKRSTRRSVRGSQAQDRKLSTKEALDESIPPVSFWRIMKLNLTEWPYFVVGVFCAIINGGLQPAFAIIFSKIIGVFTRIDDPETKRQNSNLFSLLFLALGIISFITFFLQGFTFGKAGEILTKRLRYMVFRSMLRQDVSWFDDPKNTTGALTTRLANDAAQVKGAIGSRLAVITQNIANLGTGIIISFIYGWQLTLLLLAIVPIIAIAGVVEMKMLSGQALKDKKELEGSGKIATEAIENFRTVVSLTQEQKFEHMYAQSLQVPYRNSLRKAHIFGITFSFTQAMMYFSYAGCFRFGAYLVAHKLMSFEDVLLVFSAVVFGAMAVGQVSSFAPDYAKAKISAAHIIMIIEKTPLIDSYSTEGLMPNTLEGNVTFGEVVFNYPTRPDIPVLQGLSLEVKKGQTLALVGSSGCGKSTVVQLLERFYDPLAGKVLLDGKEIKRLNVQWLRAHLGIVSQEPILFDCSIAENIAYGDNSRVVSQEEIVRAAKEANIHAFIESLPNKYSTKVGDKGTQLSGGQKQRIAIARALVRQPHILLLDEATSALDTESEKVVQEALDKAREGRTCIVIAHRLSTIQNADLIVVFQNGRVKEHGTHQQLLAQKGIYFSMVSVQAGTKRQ
Assay: Bidirectional transport assay of single components (substrate assay), with or without verapamil
Type: in vitro ADME
Settings: dog, MDCK-MDR1, Single Component Group, Papp(BL-AP)/Papp(AP-BL), n = 3, read-out: ER (efflux ratio)

Some molecules with known efflux ratio at 2 h results, for comparison:
[
  {
    "Compound string": "C[C@@H](CC[C@@]1(O)O[C@H]2C[C@H]3[C@@H]4CC[C@@H]5C[C@@H](O[C@@H]6O[C@H](CO)[C@H](O)[C@H](O)[C@H]6O[C@@H]6O[C@H](CO)[C@@H](O)[C@H](O)[C@H]6O)CC[C@]5(C)[C@H]4CC[C@]3(C)[C@H]2[C@@H]1C)CO[C@@H]1O[C@H](CO)[C@@H](O)[C@H](O)[C@H]1O",
    "System": "P-gp (Homo sapiens, UniProt P08183)",
    "Result type": "efflux ratio at 2 h",
    "Reported measurement": "> 2"
  },
  {
    "Compound string": "O=c1c2cc(O)c(O)cc2oc2cc(O)c([C@@H]3O[C@H](CO)[C@@H](O)[C@H](O)[C@H]3O)c(O)c12",
    "System": "P-gp (Homo sapiens, UniProt P08183)",
    "Result type": "efflux ratio at 2 h",
    "Reported measurement": "> 2"
  }
]

Fill blank: measured efflux ratio at 2 h of the molecule O=c1c2cc(O[C@@H]3O[C@H](CO)[C@@H](O)[C@H](O)[C@H]3O)c(O)cc2oc2cc(O)c([C@@H]3O[C@H](CO)[C@@H](O)[C@H](O)[C@H]3O)c(O)c12 is ____. < 2

Fill blank: measured efflux ratio at 2 h of the molecule C[C@H]1CC[C@@]2(OC1)O[C@H]1C[C@H]3[C@@H]4CC[C@@H]5C[C@@H](O[C@@H]6O[C@H](CO)[C@H](O)[C@H](O)[C@H]6O[C@@H]6O[C@H](CO)[C@@H](O)[C@H](O)[C@H]6O)CC[C@]5(C)[C@H]4CC[C@]3(C)[C@H]1[C@@H]2C is ____. > 2

---

Target: P-gp (Homo sapiens)
Assay: Bidirectional transport assay of Rh-123 (P-gp inhibition)
Assay type: cell-based
Conditions: dog, MDCK-MDR1, 120 min
Result type: Papp (BL-AP) of rhodamine-123 in combination with the compound (×10⁻⁶ cm/s)

[
  {
    "Molecule": "O=c1c2cc(O)c(O)cc2oc2cc(O)c([C@@H]3O[C@H](CO)[C@@H](O)[C@H](O)[C@H]3O)c(O)c12",
    "Reported measurement": 2.36
  },
  {
    "Molecule": "C[C@H]1CC[C@@]2(OC1)O[C@H]1C[C@H]3[C@@H]4CC[C@@H]5C[C@@H](O[C@@H]6O[C@H](CO)[C@H](O)[C@H](O)[C@H]6O[C@@H]6O[C@H](CO)[C@@H](O)[C@H](O)[C@H]6O)CC[C@]5(C)[C@H]4CC[C@]3(C)[C@H]1[C@@H]2C",
    "Reported measurement": 2.17
  },
  {
    "Molecule": "C[C@@H](CC[C@@]1(O)O[C@H]2C[C@H]3[C@@H]4CC[C@@H]5C[C@@H](O[C@@H]6O[C@H](CO)[C@H](O)[C@H](O)[C@H]6O[C@@H]6O[C@H](CO)[C@@H](O)[C@H](O)[C@H]6O)CC[C@]5(C)[C@H]4CC[C@]3(C)[C@H]2[C@@H]1C)CO[C@@H]1O[C@H](CO)[C@@H](O)[C@H](O)[C@H]1O",
    "Reported measurement": 2.34
  },
  {
    "Molecule": "COc1ccc(-c2oc3c(CC=C(C)C)c(O)cc(O)c3c(=O)c2O[C@@H]2O[C@@H](C)[C@H](O)[C@@H](O)[C@H]2O)cc1 [BHI, baohuoside I]",
    "Reported measurement": 2.53
  }
]

---

Target: P-gp (Homo sapiens)
Assay: Bidirectional transport assay of single components (substrate assay), with or without verapamil
Assay type: in vitro ADME
Conditions: dog, MDCK-MDR1, with verapamil (concentration not stated), Single Component + Verapamil Group, n = 3, read-out: ER (efflux ratio)
Result type: efflux ratio at 2 h

[
  {
    "Compound": "O=c1c2cc(O)c(O)cc2oc2c([C@@H]3O[C@H](CO)[C@@H](O)[C@H](O)[C@H]3O)c(O)cc(O)c12",
    "System": "P-gp (Homo sapiens)",
    "efflux ratio at 2 h": 0.55
  }
]

[a] O=c1c2cc(O)c(O)cc2oc2cc(O)c([C@@H]3O[C@H](CO)[C@@H](O)[C@H](O)[C@H]3O)c(O)c12
[b] COc1ccc(-c2oc3c(CC=C(C)C)c(O)cc(O)c3c(=O)c2O[C@@H]2O[C@@H](C)[C@H](O)[C@@H](O)[C@H]2O)cc1 [BHI, baohuoside I]
Pick one: a or b . Which has the bigger efflux ratio at 2 h number? Label of pick, please. b

---

Target: UniProtKB P08183
Experiment: Bidirectional transport assay of single components (substrate assay), with or without verapamil
Format: in vitro ADME
Details: dog, MDCK-MDR1, Single Component + Verapamil Group, n = 3
Result type: Papp A→B at 2 h (×10⁻⁶ cm/s)
# output: bare number, implied unit ×10⁻⁶ cm/s

Fill blank: measured Papp A→B at 2 h of the molecule C[C@H]1CC[C@@]2(OC1)O[C@H]1C[C@H]3[C@@H]4CC[C@@H]5C[C@@H](O)CC[C@]5(C)[C@H]4CC[C@]3(C)[C@H]1[C@@H]2C [SSG, sarsasapogenin] is ____. 0.0904

---

Molecular target: UniProt P08183
Test: Bidirectional transport assay of single components (substrate assay), with or without verapamil
Type: in vitro ADME
Details: dog; Single Component Group; MDCK-MDR1; n = 3
Result type: Papp B→A at 2 h (×10⁻⁶ cm/s)

[
  {
    "Compound": "C[C@@H](CC[C@@]1(O)O[C@H]2C[C@H]3[C@@H]4CC[C@@H]5C[C@@H](O[C@@H]6O[C@H](CO)[C@H](O)[C@H](O)[C@H]6O[C@@H]6O[C@H](CO)[C@@H](O)[C@H](O)[C@H]6O)CC[C@]5(C)[C@H]4CC[C@]3(C)[C@H]2[C@@H]1C)CO[C@@H]1O[C@H](CO)[C@@H](O)[C@H](O)[C@H]1O",
    "Reported measurement": 1.67
  }
]

[1] COc1ccc(-c2oc3c(CC=C(C)C)c(O)cc(O)c3c(=O)c2O[C@@H]2O[C@@H](C)[C@H](O)[C@@H](O)[C@H]2O)cc1 [BHI, baohuoside I]
[2] O=c1c2cc(O)c(O)cc2oc2cc(O)c([C@@H]3O[C@H](CO)[C@@H](O)[C@H](O)[C@H]3O)c(O)c12
[3] O=c1c2cc(O[C@@H]3O[C@H](CO)[C@@H](O)[C@H](O)[C@H]3O)c(O)cc2oc2cc(O)c([C@@H]3O[C@H](CO)[C@@H](O)[C@H](O)[C@H]3O)c(O)c12
[4] O=c1c2cc(O)c(O)cc2oc2c([C@@H]3O[C@H](CO)[C@@H](O)[C@H](O)[C@H]3O)c(O)cc(O)c12
[5] C[C@H]1CC[C@@]2(OC1)O[C@H]1C[C@H]3[C@@H]4CC[C@@H]5C[C@@H](O[C@@H]6O[C@H](CO)[C@H](O)[C@H](O)[C@H]6O[C@@H]6O[C@H](CO)[C@@H](O)[C@H](O)[C@H]6O)CC[C@]5(C)[C@H]4CC[C@]3(C)[C@H]1[C@@H]2C
Falling order of Papp B→A at 2 h, please. List the labels according to the requested ordering. 5, 2, 1, 3, 4
(5: 2.16 ×10⁻⁶ cm/s, 2: 1.35 ×10⁻⁶ cm/s, 1: 0.72 ×10⁻⁶ cm/s, 3: 0.137 ×10⁻⁶ cm/s, 4: 0.0702 ×10⁻⁶ cm/s)

---

Target: P-gp (Homo sapiens, UniProt P08183)
Test: Bidirectional transport assay of single components (substrate assay), with or without verapamil
Format: in vitro ADME
Details: dog; Single Component Group; MDCK-MDR1; 2.0 µM TAIII, 1.6 μM TBII, 4.7 μM MGF, 4.7 μM IMGF, 3.4 μM NMGF, 1.2 μM SSG, 3.9 μM BHI; n = 3
Experimental: Before experiments, cell monolayers were washed twice with HBSS and equilibrated with HBSS for 30 min at 37 °C. […] The amount of seven constituents of AR was determined by LC-MS/MS. The apparent permeability (Papp) of each substrate across MDCK-MDR1 cell monolayers in both the basolateral to apical (B > A) and apical to basolateral (A > B) directions were calculated using the following formula: […]
Result type: Papp A→B at 2 h (×10⁻⁶ cm/s)

[
  {
    "Compound": "O=c1c2cc(O)c(O)cc2oc2cc(O)c([C@@H]3O[C@H](CO)[C@@H](O)[C@H](O)[C@H]3O)c(O)c12",
    "Papp A→B at 2 h / ×10⁻⁶ cm/s": 0.606
  },
  {
    "Compound": "C[C@@H](CC[C@@]1(O)O[C@H]2C[C@H]3[C@@H]4CC[C@@H]5C[C@@H](O[C@@H]6O[C@H](CO)[C@H](O)[C@H](O)[C@H]6O[C@@H]6O[C@H](CO)[C@@H](O)[C@H](O)[C@H]6O)CC[C@]5(C)[C@H]4CC[C@]3(C)[C@H]2[C@@H]1C)CO[C@@H]1O[C@H](CO)[C@@H](O)[C@H](O)[C@H]1O",
    "Papp A→B at 2 h / ×10⁻⁶ cm/s": 0.719
  },
  {
    "Compound": "COc1ccc(-c2oc3c(CC=C(C)C)c(O)cc(O)c3c(=O)c2O[C@@H]2O[C@@H](C)[C@H](O)[C@@H](O)[C@H]2O)cc1 [BHI, baohuoside I]",
    "Papp A→B at 2 h / ×10⁻⁶ cm/s": 0.24
  },
  {
    "Compound": "O=c1c2cc(O[C@@H]3O[C@H](CO)[C@@H](O)[C@H](O)[C@H]3O)c(O)cc2oc2cc(O)c([C@@H]3O[C@H](CO)[C@@H](O)[C@H](O)[C@H]3O)c(O)c12",
    "Papp A→B at 2 h / ×10⁻⁶ cm/s": 0.121
  }
]

[P] O=c1c2cc(O)c(O)cc2oc2c([C@@H]3O[C@H](CO)[C@@H](O)[C@H](O)[C@H]3O)c(O)cc(O)c12
[Q] C[C@H]1CC[C@@]2(OC1)O[C@H]1C[C@H]3[C@@H]4CC[C@@H]5C[C@@H](O[C@@H]6O[C@H](CO)[C@H](O)[C@H](O)[C@H]6O[C@@H]6O[C@H](CO)[C@@H](O)[C@H](O)[C@H]6O)CC[C@]5(C)[C@H]4CC[C@]3(C)[C@H]1[C@@H]2C
Pick one: P or Q . Which has the bigger Papp A→B at 2 h number? Label of pick, please. Q
